Tested on: NAADP receptor
Assay: Competition ligand binding with [32P]NAADP in sea urchin egg homogenate
Conditions: assay not specified
Quantity Measured: loss of potency relative to NAADP

Kindly note the recorded loss of potency relative to NAADP for Cc1cc[n+]([C@H]2O[C@@H](COP(=O)(O)OP(=O)(O)OC[C@H]3O[C@@H](n4cnc5c(N)ncnc54)[C@H](OP(=O)(O)O)[C@@H]3O)[C@H](O)[C@@H]2O)cc1C(=O)[O-] , which is 100 to 200 fold

---

System: NAADP receptor
Experiment: Ca2+ release from Ca2+ loaded sea urchin egg homogenates
Assay type: biochemical, sea urchin (Strongylocentrotus purpuratus)
Conditions: text summary of concentration response curves, Figure 2 / Table 3
Quantity Measured: potency for Ca2+ release compared to NAADP (fold less potent)

Kindly note the recorded potency for Ca2+ release compared to NAADP (fold less potent) for [N-]=[N+]=Nc1cc(C(=O)[O-])c[n+]([C@H]2O[C@@H](COP(=O)(O)OP(=O)(O)OC[C@H]3O[C@@H](n4cnc5c(N)ncnc54)[C@H](OP(=O)(O)O)[C@@H]3O)[C@H](O)[C@@H]2O)c1 , which is 10 to 100 fold
